# experimental.protocol: qHTS for Inhibitors of the Functional Ribonucleoprotein Complex (vRNP) of Lassa (LASV) Arenavirus: LASV Primary Screen - GLuc reporter signal (AID 1347082); further: nearly all actives have a fitted effect of over 60% in size
# measurement.parameters: LASV minigenome vRNP, Gaussia luciferase reporter; series mostly up to 57.5 µM
Records with an inconclusive call do not appear. Activity calls are given as the source filed them. The call rests on the fitted dose curve; tested in HEK293 reporter line.
value.type: outcome

Observe how each entry below is paired with its result.
| query.smiles | outcome |
| --- | --- |
| COc1nc(N)nc2c1ncn2[C@@H]1O[C@H](CO)[C@@H](O)[C@@H]1O | inactive |
| C=C1C[C@@H]2[C@H](CC[C@]3(C)C(=O)CC[C@@H]23)[C@@]2(C)C=CC(=O)C=C12 | inactive |
| N[C@@H]1C[C@H]1c1ccccc1 | inactive |
| COc1ccccc1Oc1c(NS(=O)(=O)c2ccc(C(C)(C)C)cc2)nc(-c2ncccn2)nc1OCCO | inactive |

Next molecule, outcome to be filled in.
stdin: Which measured outcome value corresponds to `CCCCc1ncc(/C=C(\Cc2cccs2)C(=O)O)n1Cc1ccc(C(=O)O)cc1` ?
stdout: inactive
